Entries and their EC50 values follow.
Test system: MOLM-16
assay: MOLM-16 EC50 assay
Assay type: cell-based
condition.set: MOLM16
readout.label: EC50

>>> df
                                    molecule          result
 0  Cc1cnnn1-c1ccc2c(c1)OC(C)(C)c1nc(Nc3cnc4c(c3)N(CC3COC3)CCO4)ncc1-2 [Compound 13]  100 to 1000 nM
 1  CC(=O)OC(C)(C)C(=O)N1CCOc2ncc(Nc3ncc4c(n3)C(C)(C)Oc3cc(-c5nocc5C)ccc3-4)cc21 [Compound 29]       > 1000 nM
 2  CNC(=O)N1CCOc2ncc(Nc3ncc4c(n3)C(C)(C)Oc3cc(-n5nncc5C)ccc3-4)cc21 [Compound 8]  100 to 1000 nM
 3  CNC(=O)N1CCOc2ncc(Nc3ncc4c(n3)C(C)(C)Oc3cc(N5CCCC5=O)ccc3-4)cc21 [Compound 7]    10 to 100 nM
 4  CN1CCN(CC(=O)N2CCOc3ncc(Nc4ncc5c(n4)C(C)(C)Oc4cc(N6CCCC6=O)ccc4-5)cc32)CC1 [Compound 22]    10 to 100 nM
 5  CCN1CCN(Cc2cncc(Nc3ncc4c(n3)C(C)(C)Oc3cc(N5CCCC5=O)ccc3-4)c2)CC1 [Compound 4]    10 to 100 nM
 6  CCN(CC)CCN(C)c1cncc(Nc2ncc3c(n2)C(C)(C)Oc2cc(-n4nncc4C)ccc2-3)c1 [Compound 27]  100 to 1000 nM
 7  CC1(C)Oc2cc(N3CCCC3=O)ccc2-c2cnc(Nc3cnc4c(c3)N(C(=O)NC3CC3)CCO4)nc21 [Compound 23]    10 to 100 nM
 8  C[C@@H]1CCC(=O)N1c1ccc2c(c1)OC(C)(C)c1nc(Nc3cnc4c(c3)N(C(=O)CN(C)C)CCO4)ncc1-2 [Compound 3]    10 to 100 nM
 9  Cc1cnnn1-c1ccc2c(c1)OC(C)(C)c1nc(Nc3cnc4c(c3)N(C(=O)CN(C)C)CCO4)ncc1-2 [Compound 10]  100 to 1000 nM
10  CN(C)C1CCN(c2cncc(Nc3ncc4c(n3)C(C)(C)Oc3cc(N5CCCC5=O)ccc3-4)c2)CC1 [Compound 25]    10 to 100 nM
11  Cc1conc1-c1ccc2c(c1)OC(C)(C)c1nc(Nc3cnc4c(c3)N(C(=O)N(C)C)CCO4)ncc1-2 [Compound 15]  100 to 1000 nM
12  CCN1CCN(Cc2cncc(Nc3ncc4c(n3)C(C)(C)Oc3cc(-n5nncc5C)ccc3-4)c2)CC1 [Compound 17]  100 to 1000 nM
13  Cc1cnnn1-c1ccc2c(c1)OC(C)(C)c1nc(Nc3cncc(CNCCS(C)(=O)=O)c3)ncc1-2 [Compound 14]       > 1000 nM
14  Cc1cnnn1-c1ccc2c(c1)OC(C)(C)c1nc(Nc3cnc4c(c3)N(C(=O)N(C)C)CCO4)ncc1-2 [Compound 5]  100 to 1000 nM
15  CCN(CC)CCN(C)c1cncc(Nc2ncc3c(n2)C(C)(C)Oc2cc(N4CCCC4=O)ccc2-3)c1 [Compound 32]    10 to 100 nM

----------
Tested on: MOLM-16
assay: MOLM-16 EC50 assay
Type: cell-based
condition.set: MOLM16
pEC50: −log10 of the molar value.
readout.label: pEC50

In [3]: df
Out[3]:
                                    compound  system_name  readout_label        result
 0  Cc1cnnn1-c1ccc2c(c1)OC(C)(C)c1nc(Nc3cncc(N4CCN(CCO)CC4)c3)ncc1-2 [Compound 6]      MOLM-16          pEC50  6.00 to 7.00
 1  CC(=O)OC(C)C(=O)N1CCOc2ncc(Nc3ncc4c(n3)C(C)(C)Oc3cc(-n5nncc5C)ccc3-4)cc21 (stereo not drawn) [Compound 12]      MOLM-16          pEC50        < 6.00
 2  CN1CCN(CC(=O)N(C)c2cncc(Nc3ncc4c(n3)C(C)(C)Oc3cc(N5CCCC5=O)ccc3-4)c2)CC1 [Compound 35]      MOLM-16          pEC50  6.00 to 7.00
 3  CC1(C)Oc2cc(N3CCCC3=O)ccc2-c2cnc(Nc3cncc(CNCCS(C)(=O)=O)c3)nc21 [Compound 31]      MOLM-16          pEC50  7.00 to 8.00
 4  Cc1cnnn1-c1ccc2c(c1)OC(C)(C)c1nc(Nc3cnc4c(c3)N(C(=O)NC3CC3)CCO4)ncc1-2 [Compound 9]      MOLM-16          pEC50  6.00 to 7.00
 5  CN1CCOc2ncc(Nc3ncc4c(n3)C(C)(C)Oc3cc(N5C(=O)CCC56CC6)ccc3-4)cc21 [Compound 26]      MOLM-16          pEC50  6.00 to 7.00
 6  CC(=O)OC1(C(=O)N2CCOc3ncc(Nc4ncc5c(n4)C(C)(C)Oc4cc(-n6nncc6C)ccc4-5)cc32)CC1 [Compound 16]      MOLM-16          pEC50        < 6.00
 7  CC1(C)Oc2cc(N3CCCC3=O)ccc2-c2cnc(Nc3cncc(N4CCN(CCO)CC4)c3)nc21 [Compound 19]      MOLM-16          pEC50  7.00 to 8.00
 8  CCN(CC)CCNC(=O)N1CCOc2ncc(Nc3ncc4c(n3)C(C)(C)Oc3cc(N5CCCC5=O)ccc3-4)cc21 [Compound 1]      MOLM-16          pEC50  7.00 to 8.00
 9  CC1(C)Oc2cc(N3CCCC3=O)ccc2-c2cnc(Nc3cnc4c(c3)N(C(=O)NCCN3CCOCC3)CCO4)nc21 [Compound 2]      MOLM-16          pEC50  7.00 to 8.00
10  CCN(CC)CCN1CCOc2ncc(Nc3ncc4c(n3)C(C)(C)Oc3cc(N5CCCC5=O)ccc3-4)cc21 [Compound 36]      MOLM-16          pEC50  7.00 to 8.00
11  CN(C)CCOc1cncc(Nc2ncc3c(n2)C(C)(C)Oc2cc(N4CCCC4=O)ccc2-3)c1 [Compound 33]      MOLM-16          pEC50  7.00 to 8.00
12  CNCCOc1cncc(Nc2ncc3c(n2)C(C)(C)Oc2cc(N4CCCC4=O)ccc2-3)c1 [Compound 34]      MOLM-16          pEC50  7.00 to 8.00
13  CNC(=O)N1CCOc2ncc(Nc3ncc4c(n3)C(C)(C)Oc3cc(-c5nocc5C)ccc3-4)cc21 [Compound 11]      MOLM-16          pEC50  6.00 to 7.00
14  CC1(C)Oc2cc(N3C(=O)CCC34CC4)ccc2-c2cnc(Nc3cccnc3)nc21 [Compound 24]      MOLM-16          pEC50  6.00 to 7.00
